Biological target: HLA-B*44:03
Test: IEDB peptide-MHC binding, purified MHC/competitive/radioactivity; filed as Kd, often an IC50 or EC50 that approximates it; bounds were set here for any values at or beyond the usual limits of such assays
Details: source organism: Dengue virus 1 Brazil/97-11/1997
MEASUREMENT KIND: pKd
Friendly reminder that pKd comes from taking -log10 of the concentration in mol/L.

# SEQUENCE, VALUE MEASURED
measured = [
    ("EERDDTLTI", 5.84),
]

Now take the following sequence into account.
Entry NELNHILLE — recorded pKd = 4.82

----------
Target: HLA-B*58:01
Assay: IEDB peptide-MHC binding, purified MHC/direct/fluorescence; filed as Kd, often an IC50 or EC50 that approximates it; bounds were set here for any values at or beyond the usual limits of such assays
Details: source organism: H9N2 subtype Influenza A virus (A/swine/Korea/S81/2004(H9N2))
MEASUREMENT KIND: Kd (nM)
State just the number; it will be interpreted in nM.

Entry KAVRGDLNF — recorded Kd = 93

----------
Target: HLA-B*15:42
Test: IEDB peptide-MHC binding, purified MHC/competitive/fluorescence; filed as Kd, often an IC50 or EC50 that approximates it; bounds were set here for any values at or beyond the usual limits of such assays
Settings: source organism: Gorilla gorilla
pKd: −log10 of the molar value.
MEASUREMENT KIND: pKd

Entry VMAPRTLVL — recorded pKd = ≤ 5.30

----------
Biological target: HLA-A*31:01
Assay: IEDB peptide-MHC binding, purified MHC/direct/fluorescence; filed as Kd, often an IC50 or EC50 that approximates it; bounds were set here for any values at or beyond the usual limits of such assays
Details: source organism: H9N2 subtype Influenza A virus (A/swine/Korea/S81/2004(H9N2))
pKd: −log10 of the molar value.
MEASUREMENT KIND: pKd

Entry KAVRGDLNF — recorded pKd = ≤ 4.70

----------
Target: HLA-A*02:12
Assay: IEDB peptide-MHC binding, purified MHC/direct/fluorescence; filed as Kd, often an IC50 or EC50 that approximates it; bounds were set here for any values at or beyond the usual limits of such assays
Conditions: source organism: Reston ebolavirus
pKd: −log10 of the molar value.
MEASUREMENT KIND: pKd

Entry TTDDSTSYY — recorded pKd = ≤ 4.70

----------
Biological target: HLA-B*57:01
Assay: IEDB peptide-MHC binding, purified MHC/competitive/fluorescence; filed as Kd, often an IC50 or EC50 that approximates it; bounds were set here for any values at or beyond the usual limits of such assays
Conditions: source organism: Shigella flexneri 5 str. 8401
pKd: −log10 of the molar value.
MEASUREMENT KIND: pKd

Entry FGALFMWLL — recorded pKd = ≤ 4.70

----------
Molecular target: HLA-B*58:01
Assay: IEDB peptide-MHC binding, purified MHC/direct/fluorescence; filed as Kd, often an IC50 or EC50 that approximates it; bounds were set here for any values at or beyond the usual limits of such assays
Conditions: source organism: Influenza A virus (A/Viet Nam/HN/2004(H5N1))
pKd: −log10 of the molar value.
MEASUREMENT KIND: pKd

Entry RRVRDNMTK — recorded pKd = ≤ 4.70

----------
Property: Kd; scope: individual sequences
Target: HLA-A*23:01
Assay: IEDB peptide-MHC binding, purified MHC/competitive/radioactivity; filed as Kd, often an IC50 or EC50 that approximates it; bounds were set here for any values at or beyond the usual limits of such assays
Details: source organism: Dengue virus 3 Martinique/1243/1999
State just the number; it will be interpreted in nM.

# SEQUENCE, MEASUREMENT KIND, VALUE MEASURED
rows = [
    ("QWFVERNMVI", "Kd", 111),
]

HLA-A*23:01 Kd of HMIAGVFFTF is 28.9

----------
Property: Kd; scope: individual sequences
Biological target: HLA-B*44:03
Assay: IEDB peptide-MHC binding, purified MHC/competitive/radioactivity; filed as Kd, often an IC50 or EC50 that approximates it; bounds were set here for any values at or beyond the usual limits of such assays
Conditions: source organism: Mammarenavirus lassaense

Here are 2 sequences together with their reported answers.
# SEQUENCE, Kd
data = [
    ("ADNLITEML", "12.3 µM"),
    ("SESDLEFSW", "0.0074 µM"),
]

Now take the following sequence into account.
Entry GEPKTVKVL — recorded Kd = ≥ 78.1 µM

----------
Target: HLA-A*11:01
Test: IEDB peptide-MHC binding, purified MHC/direct/fluorescence; filed as Kd, often an IC50 or EC50 that approximates it; bounds were set here for any values at or beyond the usual limits of such assays
Conditions: source organism: Pasteurella multocida
pKd: −log10 of the molar value.
MEASUREMENT KIND: pKd

Entry LMAEDLANV — recorded pKd = ≤ 4.70

----------
Property: pKd; scope: individual sequences
Biological target: HLA-A*03:01
Assay: IEDB peptide-MHC binding, purified MHC/direct/fluorescence; filed as Kd, often an IC50 or EC50 that approximates it; bounds were set here for any values at or beyond the usual limits of such assays
Settings: source organism: Giardia lamblia ATCC 50803
pKd: −log10 of the molar value.

Here are 4 sequences together with their reported answers.
# SEQUENCE, MEASUREMENT KIND, VALUE MEASURED
measured = [
    ("EFFDTEPQL", "pKd", "≤ 4.70"),
    ("PTKCGENLY", "pKd", "≤ 4.70"),
    ("ATSGYRIAY", "pKd", "≤ 4.70"),
    ("KTPWDRFCK", "pKd", 5.44),
]

Now take the following sequence into account.
Entry KLLQICMWF — recorded pKd = ≤ 4.70

----------
Target: HLA-B*48:01
Assay: IEDB peptide-MHC binding, purified MHC/direct/fluorescence; filed as Kd, often an IC50 or EC50 that approximates it; bounds were set here for any values at or beyond the usual limits of such assays
Details: source organism: Yellow fever virus
pKd: −log10 of the molar value.
MEASUREMENT KIND: pKd

# SEQUENCE, TARGET OR SYSTEM, pKd
records = [
    ("YRNALSMMP", "HLA-B*48:01", "≤ 4.70"),
]

Entry PHAATIRVL — recorded pKd = ≤ 4.70

----------
Molecular target: HLA-B*15:42
Test: IEDB peptide-MHC binding, purified MHC/competitive/fluorescence; filed as Kd, often an IC50 or EC50 that approximates it; bounds were set here for any values at or beyond the usual limits of such assays
Details: source organism: Vibrio parahaemolyticus RIMD 2210633
MEASUREMENT KIND: Kd

HLA-B*15:42 Kd of SMNYPNSYK is ≥ 5 µM

----------
Target: HLA-A*68:02
Assay: IEDB peptide-MHC binding, purified MHC/competitive/radioactivity; filed as Kd, often an IC50 or EC50 that approximates it; bounds were set here for any values at or beyond the usual limits of such assays
Details: source organism: Human immunodeficiency virus type 1 (CLONE 12)
MEASUREMENT KIND: Kd

Entry PLTFGWCYKL — recorded Kd = ≥ 20.1 µM

----------
Molecular target: HLA-A*02:06
Assay: IEDB peptide-MHC binding, purified MHC/competitive/radioactivity; filed as Kd, often an IC50 or EC50 that approximates it; bounds were set here for any values at or beyond the usual limits of such assays
Details: source organism: Dengue virus 2 Jamaica/1409/1983
MEASUREMENT KIND: Kd (nM)
State just the number; it will be interpreted in nM.

Here are 3 sequences together with their reported answers.
# SEQUENCE, Kd / nM
measured = [
    ("GQVMLLILCV", 77.2),
    ("YQLAVTIMAI", 11.3),
    ("FTDPASIAA", 32.6),
]

Now take the following sequence into account.
HLA-A*02:06 Kd of FLDLPLPWL is 127

----------
Property: pKd; scope: individual sequences
Biological target: HLA-A*02:03
Test: IEDB peptide-MHC binding, purified MHC/competitive/radioactivity; filed as Kd, often an IC50 or EC50 that approximates it; bounds were set here for any values at or beyond the usual limits of such assays
Conditions: source organism: Vaccinia virus WR
Friendly reminder that pKd comes from taking -log10 of the concentration in mol/L.

Here are 4 sequences together with their reported answers.
# SEQUENCE, pKd
rows = [
    ("RAKRKPAMST", 5.86),
    ("YLRGHTESI", 9.75),
    ("FLLPLTSLVI", 8.29),
    ("SIKMIYDLNA", 6.59),
]

HLA-A*02:03 pKd of PVDLVKSSFV is 5.02

HLA-A*02:03 pKd of TILATLNTLI is 7.53

HLA-A*02:03 pKd of DVNSVQFSI is 4.79

HLA-A*02:03 pKd of YTLIYRQLT is 5.03

HLA-A*02:03 pKd of EISSNDNAKI is 6.71

HLA-A*02:03 pKd of FLRPVLKAM is 8.01

HLA-A*02:03 pKd of EQRRSTIFDI is 4.94

Recorded values, source the Immune Epitope Database (IEDB).
